- TARGET DESC: HIV RT recovered from patient plasma (Human immunodeficiency virus type 1)
- EXPERIMENT SUMMARY: Susceptibility to AZT-TP and d4T-TP using plasma derived RTs (Chain-termination reaction mixture)
- PROTOCOL CONDITIONS: IC50, plasma RT of patient code 3507; 5 fg/well
The reader will find reported pIC50 values listed item by item below.
Keep in mind that pIC50 stands for -log10 of concentration in molar terms.

MOLECULE	TARGET DESC	pIC50
Cc1cn(C2CC(N=[N+]=[N-])C(COP(=O)(O)OP(=O)(O)OP(=O)(O)O)O2)c(=O)[nH]c1=O (centres unmarked)	HIV RT recovered from patient plasma (Human immunodeficiency virus type 1)	6.89

Attention now shifts to the item below.
Sure, the documented pIC50 for Cc1cn([C@H]2C=C[C@@H](COP(=O)(O)OP(=O)(O)OP(=O)(O)O)O2)c(=O)[nH]c1=O is 7.70
